Data origin: PubChem BioAssay (NCI)

Test system: CAKI-1 renal
PROCEDURE_DETAILS: NCI-60 one-dose screen, 48 h
SETTINGS: 10 µM unless noted
The panel holds about 83,000 compounds, 20% with a hit somewhere; the sample as a whole holds those more often. Activity calls are given as the source filed them. How the source made its calls: active means growth percent below 10; inactive means the rest.
API: response.call in y (active), n (inactive)

Can you look up the reported call for COc1ccc(-c2nc(/C=C3\C(=O)N(C)c4ccccc43)c3ccccn23)cc1 for me? n

Can you look up the reported call for CCN1CCN(c2cc(C)nc(N(CCNc3ccnc4cc(Cl)ccc34)Cc3ccc4c(c3)OCO4)n2)CC1 for me? n

Can you look up the reported call for COc1ccc(/C=C2\CN(C(=O)C(Cl)Cl)C/C(=C\c3ccc(OC)cc3)C2=O)cc1 for me? y

Can you look up the reported call for COc1cc(OC)c2sc(-c3ccc(-n4cncc4-c4cc(OC)c(OC)c(OC)c4)cc3)nc2c1 for me? n

Can you look up the reported call for COC(=O)CC[C@@H]1O[C@@H](c2ccc(F)cc2)[C@@H](O)[C@H]1O for me? n

Can you look up the reported call for CCOC(=O)c1c(C)nc2c(c1N)CC(=O)N2Cc1ccc(OC)cc1 for me? n

Can you look up the reported call for COc1cc(NC(=O)c2cncnc2Nc2ccc3c(ccn3Cc3ccccn3)c2)cc(OC)c1 for me? n

Can you look up the reported call for Cc1nc2cc(O)c(O)cc2cc1Oc1ccc(NC(=O)Nc2ccc(Cl)c(Cl)c2)cc1 for me? n

Can you look up the reported call for COc1cccc(C(=O)NNc2nc(Cl)nc(Cl)n2)c1 for me? n

Can you look up the reported call for CCN1CCN(CC(=O)Nc2ccc(-c3cn4c(n3)sc3cc(Oc5ccnc(C(=O)NC)c5)ccc34)cc2)CC1 for me? n

Can you look up the reported call for CN(Cc1cnc2nc(N)nc(N)c2n1)c1ccc(C(=O)NC(CCC(=O)O)C(=O)O)cc1Br (configuration not stated) for me? n

Can you look up the reported call for COc1cc(/C=C/C(=O)/C=C(O)/C=C/c2ccc(OC(=O)C34CC5CC(CC(C5)C3)C4)c(OC)c2)ccc1OC(=O)C12CC3CC(CC(C3)C1)C2 for me? n

Can you look up the reported call for O=C(O)/C=C/C(=O)Nc1cccc(Cn2nnc3cc(Cl)c(Cl)cc32)c1 for me? n

Can you look up the reported call for N#Cc1c(-c2ccccc2)nc(SCc2nnc(-c3ccc(Cl)cc3)o2)[nH]c1=O for me? n

Can you look up the reported call for COc1ccc(C[n+]2c3ccccc3n3c4ccc(N)cc4ccc32)c(OC)c1OC for me? n

Can you look up the reported call for COC(=O)c1c2c(c(C)[n+]([O-])c1C)C(=O)C(NCc1cccc(Cl)c1)=CC2=O for me? n

Can you look up the reported call for O=C(Nc1ccccc1O)c1ccc(CNC(=O)c2ccsc2Nc2ccnc(C(F)(F)F)c2)cc1 for me? y

Can you look up the reported call for CCNC(=O)Oc1ccc(/C(=C(/CC)Cc2ccccc2)c2ccc(OCCN3CCCC3)cc2)cc1 for me? n

Can you look up the reported call for CCCCCCCC/C=C\CCCCCCCCOc1ccc(CC(=O)NCC[N+]2(C)CCOCC2)cc1 for me? n

Can you look up the reported call for CNC(C)[C@H]1CCC2C3CC=C4C(=O)[C@@H](NC(=O)C=C(C)C)CC[C@]4(C)C3CC[C@@]21C (some centres not stated) for me? y

Can you look up the reported call for CNC1=C([N+](=O)[O-])C(c2ccc(OC)cc2)C(C#N)=C(c2cccs2)O1 (configuration not stated) for me? n

Can you look up the reported call for CCN(CC)CCN1C(=O)c2cccc3c(/C=C/CN4C(=O)c5cccc6cccc(c56)C4=O)ccc(c23)C1=O for me? n

Can you look up the reported call for CCN(CC)CCN1C(=O)c2c(c(C)c3c(oc4ccc(OC)cc43)c2C)C1=O for me? n

Can you look up the reported call for CN1CCN(Cc2ccc(NC(=O)c3cncc(C#Cc4cnc(N)c5ccc(F)cc45)c3)cc2C(F)(F)F)CC1 for me? n

Can you look up the reported call for COC(=O)C(Cc1ccccc1)NC(=O)c1ccc(NC(=O)c2[nH]c(C)c(Cl)c2Cl)c(OC(C)C)c1 (configuration not stated) for me? n

Can you look up the reported call for O=C1/C(=C/c2ccccn2)NC(=S)N1c1ccccc1Cl for me? n

Can you look up the reported call for S=c1[nH]c(=S)c2c(-c3ccccc3)c(-c3ccccc3)oc2[nH]1 for me? n

Can you look up the reported call for CCN(CC)CCCN1C(=O)c2c(c(C)c3c(oc4ccc(O)cc43)c2C)C1=O for me? n

Can you look up the reported call for CCN1C(=O)N(CC)C2C1NN=c1s/c(=C3\C(=O)N(CCC(C)C)c4ccccc43)c(=O)n12 (configuration not stated) for me? n

Can you look up the reported call for CC1(C)CC2=C3C=C[C@@H]4[C@@]5(C)CCC(=O)C(C)(C)[C@@H]5CC[C@@]4(C)[C@]3(C)CC[C@@]2(C(=O)O)C[C@H]1O for me? n

Can you look up the reported call for S=C(c1ccc2c(c1)OCO2)N1CCN(c2cccc(Cl)c2)CC1 for me? n

Can you look up the reported call for CN1CCN(CCCOc2cccc3nc(Nc4ccc(F)c(F)c4)ccc23)CC1 for me? y

Can you look up the reported call for O=C(/C=C/c1ccc(Cl)cc1)c1cccc(OCCCOc2cccc(C(=O)/C=C/c3ccc(Cl)cc3)c2)c1 for me? n

Can you look up the reported call for O=C1C(Nc2ccccn2)=C(I)C(=O)c2ncccc21 for me? y

Can you look up the reported call for O=C(CCl)NNc1nccc(Nc2ccc(S(=O)(=O)Nc3ccncc3)cc2)n1 for me? n

Can you look up the reported call for C=C1C(=O)O[C@H]2[C@H]1CC/C(COC(=O)c1cc3cc(Cl)ccc3[nH]1)=C\CC[C@@]1(C)O[C@@H]21 for me? y

Can you look up the reported call for CCCCC#Cc1c(I)n(C)c(=O)[nH]c1=O for me? y
